The origin of these recorded values is ChEMBL document CHEMBL5579801.

MEASUREMENT PROTOCOL: Half life in mouse brain at 5 mg/kg,iv administration
Type: ADME, organism-based
TEST READOUT: half-life (h)
Lab book: enter the figure in h, no units written.

Per the record, Cc1ccc(C[C@@H](CNC(=O)CO)n2c(=N)n(C(C)c3ccc(C)cc3)c3ccccc32)cc1 (stereo in doubt; 65c) has half-life of 12.2

Per the record, Cc1ccc(C[C@@H](C(=O)N2CC(C#N)C2)n2c(=N)n(C(C)c3ccc(C)cc3)c3ccccc32)cc1 (mixture of isomers) has half-life of 3.9

Per the record, COCOC[C@H](Cc1ccc(C)cc1)n1c(=N)n(C(C)c2ccc(C)cc2)c2cccnc21 (stereo in doubt; 62c) has half-life of 0.567

Per the record, COC[C@H](Cc1ccc(C)cc1)n1c(=N)n(C(c2ccc(C)cc2)C2CC2)c2ccccc21 (stereo in doubt; 61b) has half-life of 2.23

Per the record, Cc1ccc(C[C@@H](C(=O)N2CC(C#N)C2)n2c(=N)n(C(C)c3ccc(C)cc3)c3cccnc32)cc1 (stereo not given in full) has half-life of 0.783
